Documented inhibition across a set of compounds
# Target Entity: Phospholipase D2 (Homo sapiens) (UniProt O14939)
# Sequence (O14939 whole entry, looked up): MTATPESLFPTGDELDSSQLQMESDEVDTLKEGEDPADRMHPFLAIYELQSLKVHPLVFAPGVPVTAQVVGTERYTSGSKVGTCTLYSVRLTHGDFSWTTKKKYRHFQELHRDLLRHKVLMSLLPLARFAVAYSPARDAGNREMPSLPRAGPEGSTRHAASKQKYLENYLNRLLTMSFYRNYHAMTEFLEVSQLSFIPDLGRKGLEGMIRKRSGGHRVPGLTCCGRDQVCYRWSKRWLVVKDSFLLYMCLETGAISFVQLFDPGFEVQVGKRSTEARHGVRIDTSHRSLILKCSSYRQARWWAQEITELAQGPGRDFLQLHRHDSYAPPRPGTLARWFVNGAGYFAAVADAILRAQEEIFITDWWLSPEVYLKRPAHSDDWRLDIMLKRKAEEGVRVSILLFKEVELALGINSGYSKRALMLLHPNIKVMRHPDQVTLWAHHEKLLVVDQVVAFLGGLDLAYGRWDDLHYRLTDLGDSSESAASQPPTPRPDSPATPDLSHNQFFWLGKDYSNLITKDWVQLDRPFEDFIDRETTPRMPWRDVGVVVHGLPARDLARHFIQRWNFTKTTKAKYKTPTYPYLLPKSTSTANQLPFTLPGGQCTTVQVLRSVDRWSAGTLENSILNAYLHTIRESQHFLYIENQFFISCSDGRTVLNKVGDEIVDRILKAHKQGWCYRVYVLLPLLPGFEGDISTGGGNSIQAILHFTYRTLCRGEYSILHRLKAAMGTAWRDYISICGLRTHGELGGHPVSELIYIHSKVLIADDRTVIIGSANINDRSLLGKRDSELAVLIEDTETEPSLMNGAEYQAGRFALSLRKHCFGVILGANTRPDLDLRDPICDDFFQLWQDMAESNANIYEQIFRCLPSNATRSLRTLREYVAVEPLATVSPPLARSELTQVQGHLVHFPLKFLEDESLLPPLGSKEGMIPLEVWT
# Test Description: inhibitors of cellular PLD2 activity, cell-based (AID 743409)
# Measurement Conditions: cellular PLD2 isoenzyme activity, at 2 µM, active compounds read high
The source made the active and inactive calls. How the calls were made is not given here.

Some solved cases for reference:
>>> value_observed("O=C(NCCN1CCC2(CC1)C(=O)NCN2Cc1cccnc1)c1sc2ncccc2c1-n1cccc1")
"5% (inactive)"
>>> value_observed("O=C(NCCN1CCC2(CC1)C(=O)NCN2Cc1cccnc1)c1cc(F)c(F)c(F)c1")
"10% (inactive)"

Please report inhibition for the following compound: Cn1cc(C(=O)NCCN2CCC3(CC2)C(=O)NCN3Cc2cccnc2)c2ccccc21
31% (inactive)

Check the records and state inhibition for O=C(NCCN1CCC2(CC1)C(=O)NCN2Cc1cccnc1)c1ccc(F)cc1Cl
0% (inactive)

Specify inhibition for Cc1ccc(S(=O)(=O)NCCN2CCC3(CC2)C(=O)NCN3Cc2cccnc2)cc1 and stop.
10% (inactive)

---

Overview of recorded inhibition for various compounds
# Target Entity: Phospholipase D2 (Homo sapiens) (UniProt O14939)
# Test Description: inhibitors of cellular PLD2 activity, cell-based (AID 743409)
# Measurement Conditions: cellular PLD2 isoenzyme activity, at 2 µM, active compounds read high
Active and inactive are the calls of the source. The rule behind the calls is not given here.

Examples from the recorded data:
>>> value_observed("O=C(NCCN1CCC2(CC1)C(=O)NCN2Cc1cccnc1)c1cccc(Cl)c1")
"21% (inactive)"
>>> value_observed("O=C(NCCN1CCC2(CC1)C(=O)NCN2c1cccnc1)c1ccc(F)cc1")
"2% (inactive)"

Name the recorded inhibition of the item O=C(NCCN1CCC2(CC1)C(=O)NCN2c1cncc(F)c1)c1cc2cc(F)ccc2[nH]1 in your answer.
15% (inactive)

Give inhibition for the following compound: O=C(NCCN1CCC2(CC1)C(=O)NCN2Cc1cccnc1)c1ccc(C(F)(F)F)cc1
5% (inactive)

Please give measured inhibition of the following entry: O=C(NCCN1CCC2(CC1)C(=O)NCN2Cc1cccnc1)c1ccc(F)cc1
11% (inactive)

---

# Target Entity: Phospholipase D2 (Homo sapiens) (UniProt O14939)
# Test Description: inhibitors of cellular PLD2 activity, cell-based (AID 743409)
# Measurement Conditions: cellular PLD2 isoenzyme activity, at 2 µM, active compounds read high
Given measured inhibition, output condition met if it is greater than or equal to 20% and condition not met if not.

Below, 10 molecules whose answers are already recorded.
>>> qualitative_label("O=C(NCCN1CCC2(CC1)C(=O)NCN2Cc1cccnc1)c1ccc2ccccc2c1Br")
"condition met"
>>> qualitative_label("O=C(NCCN1CCC2(CC1)C(=O)NCN2Cc1cccnc1)c1ccc(Cl)cc1Cl")
"condition not met"
>>> qualitative_label("O=C(NCCN1CCC2(CC1)C(=O)NCN2Cc1cccnc1)c1ccc(Br)cc1")
"condition met"
>>> qualitative_label("O=C(NCCN1CCC2(CC1)C(=O)NCN2Cc1cccnc1)c1ccc(Cl)cc1F")
"condition not met"
>>> qualitative_label("Cc1cc(N2CNC(=O)C23CCN(CCNC(=O)c2ccc4ccccc4c2)CC3)ccn1")
"condition not met"
>>> qualitative_label("O=C(NCCN1CCC2(CC1)C(=O)NCN2Cc1cccnc1)c1ccc2ccccc2n1")
"condition met"
>>> qualitative_label("O=C(NCCN1CCC2(CC1)C(=O)NCN2Cc1cccnc1)c1cc2ccccc2[nH]1")
"condition met"
>>> qualitative_label("O=C(NCCN1CCC2(CC1)C(=O)NCN2Cc1cccnc1)c1ccccc1F")
"condition not met"
>>> qualitative_label("O=C(NCCN1CCC2(CC1)C(=O)NCN2c1cncc(F)c1)c1ccc(F)cc1")
"condition not met"
>>> qualitative_label("O=C(NCCN1CCC2(CC1)C(=O)NCN2c1cccnc1)c1cc2cc(F)ccc2[nH]1")
"condition not met"

# check: inhibition of O=C(NCCN1CCC2(CC1)C(=O)NCN2Cc1cccnc1)c1cc2cc(F)ccc2[nH]1 is greater than or equal to 20%
condition met

Determine whether measured inhibition meets or exceeds 20% for O=C(NCCN1CCC2(CC1)C(=O)NCN2c1ccc(C(F)(F)F)nc1)c1ccc2ccccc2c1
condition not met

Test whether the molecule O=C(NCCN1CCC2(CC1)C(=O)NCN2c1cccnc1)c1ccc(F)c(F)c1 records inhibition of 20% or higher.
condition not met

Could you verify whether the entry O=C(NCCN1CCC2(CC1)C(=O)NCN2Cc1cccnc1)c1ccc2ccccc2c1 shows inhibition of no less than 20%?
condition met

Hi, just wondering whether O=C(NCCN1CCC2(CC1)C(=O)NCN2Cc1cccnc1)c1cccs1 shows inhibition of 20% or higher.
condition not met

Identify whether the reported inhibition of the following molecule is 20% or greater: O=C(NCCN1CCC2(CC1)C(=O)NCN2Cc1cccnc1)c1ccc(F)c(F)c1
condition met

Textbook exercise: given the entry O=C(NCCN1CCC2(CC1)C(=O)NCN2Cc1cccnc1)c1cc2cccnc2[nH]1 , state whether its inhibition is greater than or equal to 20%.
condition not met

Check this molecule for inhibition at or above 20%: O=C(NCCN1CCC2(CC1)C(=O)NCN2c1cncc(F)c1)c1ccc(Br)cc1
condition not met

hey, is inhibition for this one >= 20%? O=C(NCCN1CCC2(CC1)C(=O)NCN2c1cncc(Br)c1)c1ccc2ccccc2c1
condition met
